Test: Liver microsomal metabolism assay, rat
Format: in vitro ADME
Details: SD, pH 7.4; rat liver microsomes 0.5 mg/mL, compound 1 μM, 37° C.; read-out: Rat liver microsome assay CLint
Protocol: (3) Liver Microsomal Metabolism Assay […]; Coenzyme (NADPH/NADH): 1 mM, Sigma Life Science; Magnesium chloride: 5 mM, 100 mM phosphate buffer (pH 7.4). Preparation of stock solutions: Powder of the compounds were accurately weighed and dissolved in DMSO to 5 mM. […] Incubation of the samples: The stock solutions of the respective compounds were respectively diluted to 0.25 mM with an aqueous solution containing 70% acetonitrile, and used as a working solution, ready for use. […]
OBSERVED_PROPERTY: microsomal CLint at 1 μM (µL/min/mg)

a = [2H]c1cc(C(=O)Nc2n[nH]c3ccc(Cc4cc(F)cc(F)c4)cc23)c(NC2CCOCC2)c([2H])c1N1C([2H])([2H])C([2H])([2H])N(C([2H])([2H])[2H])C([2H])([2H])C1([2H])[2H]
b = [2H]C1([2H])N(C)C([2H])([2H])C([2H])([2H])N(c2ccc(C(=O)Nc3n[nH]c4ccc(Cc5cc(F)cc(F)c5)cc34)c(NC3CCOCC3)c2)C1([2H])[2H]
Q: Which record shows the lower microsomal CLint at 1 μM: the first, a , or the second, b ? Kindly state the label of the option you pick.
Ans: b
(b: 19.5 µL/min/mg, a: 29.7 µL/min/mg)

A = [2H]c1c(F)cc(Cc2ccc3[nH]nc(NC(=O)c4ccc(N5CCN(C)CC5)cc4NC4CCOCC4)c3c2)cc1F
B = [2H]c1cc(C(=O)Nc2n[nH]c3ccc(Cc4cc(F)cc(F)c4)cc23)c(NC2CCOCC2)c([2H])c1N1CCN(C)CC1
Q: Task for the reader: decide whether A or B has the larger microsomal CLint at 1 μM. Identify your pick by its label.
Ans: A

P = CN1CCN(c2ccc(C(=O)Nc3n[nH]c4ccc(Cc5cc(F)cc(F)c5)cc34)c(NC3CCOCC3)c2)CC1 [Entrectinib, reference compound]
Q = [2H]C([2H])([2H])N1CCN(c2ccc(C(=O)Nc3n[nH]c4ccc(Cc5cc(F)cc(F)c5)cc34)c(NC3CCOCC3)c2)CC1
Q: Smaller microsomal CLint at 1 μM value, P vs Q ? In your reply, give the label of the chosen option.
Ans: Q
(Q: 21.3 µL/min/mg, P: 32.9 µL/min/mg)

---

Assay: Liver microsomal metabolism assay, human
Assay type: in vitro ADME
Details: pH 7.4; human liver microsomes 0.5 mg/mL, compound 1 μM, 37° C.; read-out: Human liver microsome assay CLint
OBSERVED_PROPERTY: microsomal CLint at 1 μM (µL/min/mg)

Here is how some compounds turned out for microsomal CLint at 1 μM.
Q: I'd like to know its microsomal CLint at 1 μM. The compound in question is [2H]C([2H])([2H])N1C([2H])([2H])C([2H])([2H])N(c2ccc(C(=O)Nc3n[nH]c4ccc(Cc5cc(F)cc(F)c5)cc34)c(NC3CCOCC3)c2)C([2H])([2H])C1([2H])[2H]
Ans: 39.2

Q: Which microsomal CLint at 1 μM value belongs to CN1CCN(c2ccc(C(=O)Nc3n[nH]c4ccc(Cc5cc(F)cc(F)c5)cc34)c(NC3CCOCC3)c2)CC1 [Entrectinib, reference compound] ?
Ans: 48.1

Q: Item under review: [2H]c1c(F)cc(Cc2ccc3[nH]nc(NC(=O)c4ccc(N5CCN(C)CC5)cc4NC4CCOCC4)c3c2)cc1F . Reported microsomal CLint at 1 μM?
Ans: 47.5

P = [2H]C1([2H])N(C)C([2H])([2H])C([2H])([2H])N(c2ccc(C(=O)Nc3n[nH]c4ccc(Cc5cc(F)cc(F)c5)cc34)c(NC3CCOCC3)c2)C1([2H])[2H]
Q = [2H]C([2H])(c1cc(F)cc(F)c1)c1ccc2[nH]nc(NC(=O)c3ccc(N4CCN(C([2H])([2H])[2H])CC4)cc3NC3CCOCC3)c2c1
Q: Between the two listed entries P and Q , which has its microsomal CLint at 1 μM at the higher number? Respond with the label that goes with your answer.
Ans: Q
